B1: OR4K15 (parent)
chain: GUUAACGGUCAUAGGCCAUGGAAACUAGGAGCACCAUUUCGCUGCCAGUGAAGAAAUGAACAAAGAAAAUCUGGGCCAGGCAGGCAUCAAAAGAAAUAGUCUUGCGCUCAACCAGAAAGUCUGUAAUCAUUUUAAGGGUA

- Variants of: B1
- assay-procedure: self-cleavage, relative activity (ratio to wild type); higher = more cleavage; in vitro, sequencing; the parent is a self-cleaving ribozyme
Could you label it criterion met if measured self-cleavage is 1 or higher, and criterion not met otherwise?

Worked examples follow.
GUUAACGGUCAUAGGCCAUGGAAACUAGGGGCACCAUUUCGCUGCCAGUGAAGAAAUGAACAAAGAAAAUCUGGGCCUGGCAGGCAUCAAAAGAAAUAGUCUUGCGCUCAACCAGAAAGUCUGUAAUCAUUUUAAGGGUA [A30G A78U] = criterion not met
GUUAACGGUCAUAGGCCAUGGAAACUAGGAGCACCAUUUCGCUGCCAGAGAAGAAAUGAACAAAGAAAAUCUGGGCCAGGCAGGCAUCAAAAGAGAUAGUCUUGCGCUCAACCAGAAAGUCUGUAAUCAUUUUAAGGGUA [U49A A95G] = criterion met
GUUAACGGUCAUAGGCCAUGGAAACUAGGAGCACCAUUUCGCUGCCAGUGACGAAAUGAACAAAGAAAAUCUGGGCCAGGCAGGCAUCAAAAGAAAUAGUCUUGCGCUCAACCAGAAAGCCUGUAAUCAUUUUAAGGGUA [A52C U120C] = criterion not met
AUUAACGGUCAUAGGCCAUGGAAACUAGGAGCACCAUUUCGCUGCCAGUGAAGAAAUGGACAAAGAAAAUCUGGGCCAGGCAGGCAUCAAAAGAAAUAGUCUUGCGCUCAACCAGAAAGUCUGUAAUCAUUUUAAGGGUA [G1A A59G] = criterion met
GUUAACGGUCAUAGGCCACGGAAACUAGGAGCACCAUUUCGCUGCCAGUGAAGGAAUGAACAAAGAAAAUCUGGGCCAGGCAGGCAUCAAAAGAAAUAGUCUUGCGCUCAACCAGAAAGUCUGUAAUCAUUUUAAGGGUA [U19C A54G] = criterion met

Check the entry GUUAACGGUCAUAGGCCAUGGAAACUAGGAGCACCAUUUCGCUGCCAGUGAAGAAAUGAACAAAGGAAAUCUGGGCCAGGCAGGCAUCAAAAGAAAUAGUCUUGCGCUCAACCAGAAAGUCUGUAAUCAUAUUAAGGGUA [A66G U131A] : does self-cleavage equal or exceed 1?
criterion met

// inclusive: self-cleavage at least 1? input: GUUAACGGUCAUAGGCCAUGGAAACUAGGAGCACCAUUUCGCUGCAAGUGAGGAAAUGAACAAAGAAAAUCUGGGCCAGGCAGGCAUCAAAAGAAAUAGUCUUGCGCUCAACCAGAAAGUCUGUAAUCAUUUUAAGGGUA [C46A A52G]
criterion met

Dear colleague, could you confirm whether GUUAACGAUCAUAGGCCAUGGAAACUAGGAGCACCAUUUCGCUGCCAGUGAAGAAAUGAACAAAGAAAAUCUGGGCCAGGCAGGCAUCAAAAGAAAUAGUCUUGCGCUCAACCAGAGAGUCUGUAAUCAUUUUAAGGGUA [G8A A117G] has self-cleavage at or above 1?
criterion met

Does the variant GUUAGCGGUCAUAGGCCAUGGAAACUAGGAGCACCAUUUCGCUGCCAGUGAAGAAAUGAACAAAGAAAAUCUGGGCCAGGCAGGCACCAAAAGAAAUAGUCUUGCGCUCAACCAGAAAGUCUGUAAUCAUUUUAAGGGUA [A5G U87C] have recorded self-cleavage that is 1 or more?
criterion not met

Is the recorded value of self-cleavage equal to or greater than 1 for this variant? GUUAACGGUCAUAGGCCAUGGAAACUAGGAGCACCAUUUCGCUGCCAGUGAAGAAAUGAACAGAGAAAAUCUGGGCCGGGCAGGCAUCAAAAGAAAUAGUCUUGCGCUCAACCAGAAAGUCUGUAAUCAUUUUAAGGGUA [A63G A78G]
criterion not met
